- System: Escherichia coli TOP10
- assay.notes: shrunken log2 fold change of peptide-encoding DNA abundance (4.5 h post-induction vs induction); higher = less antimicrobial activity (less host growth inhibition)
- particulars: time post-induction: 4.5 h; library: site-saturation at positions 5, 18, 19, 20
Answer no (0) if shrunken log2 fold change is under -0.009, and yes (1) if it is -0.009 or more.

Could you tell me if the measured shrunken log2 fold change of RRIRNRPPRLPRPRPRPQQVPRP reaches -0.009 or more?
yes (1)

Could you tell me if the measured shrunken log2 fold change of RRIRQRPPRLPRPRPRPWVSPRP reaches -0.009 or more?
no (0)

Could you tell me if the measured shrunken log2 fold change of RRIRVRPPRLPRPRPRPAHLPRP reaches -0.009 or more?
no (0)

Could you tell me if the measured shrunken log2 fold change of RRIRPRPPRLPRPRPRPLKIPRP reaches -0.009 or more?
no (0)

Could you tell me if the measured shrunken log2 fold change of RRIRVRPPRLPRPRPRPGCWPRP reaches -0.009 or more?
yes (1)

Could you tell me if the measured shrunken log2 fold change of RRIRPRPPRLPRPRPRPQIGPRP reaches -0.009 or more?
yes (1)

Could you tell me if the measured shrunken log2 fold change of RRIRFRPPRLPRPRPRPLAEPRP reaches -0.009 or more?
no (0)

Could you tell me if the measured shrunken log2 fold change of RRIRKRPPRLPRPRPRPRVQPRP reaches -0.009 or more?
yes (1)

###

Attribute: shrunken log2 fold change
- System: Escherichia coli TOP10
- assay.notes: shrunken log2 fold change of peptide-encoding DNA abundance (4.5 h post-induction vs induction); higher = less antimicrobial activity (less host growth inhibition)
- particulars: time post-induction: 4.5 h; library: site-saturation at positions 5, 18, 19, 20

[[record]]
sequence_text = "RRIRGRPPRLPRPRPRPPYIPRP"
endpoint_value = -0.271

[[record]]
sequence_text = "RRIRSRPPRLPRPRPRPYYGPRP"
endpoint_value = -0.197

[[record]]
sequence_text = "RRIRIRPPRLPRPRPRPGHQPRP"
endpoint_value = -0.00431

[[record]]
sequence_text = "RRIRYRPPRLPRPRPRPFDCPRP"
endpoint_value = -0.0565

[[record]]
sequence_text = "RRIRYRPPRLPRPRPRPWVQPRP"
endpoint_value = -0.544


Data request, read-out shrunken log2 fold change, for RRIRHRPPRLPRPRPRPIVWPRP
-0.2

Data request, read-out shrunken log2 fold change, for RRIRYRPPRLPRPRPRPLFMPRP
-1.24

Data request, read-out shrunken log2 fold change, for RRIRERPPRLPRPRPRPHEMPRP
-0.039

Data request, read-out shrunken log2 fold change, for RRIRSRPPRLPRPRPRPNFEPRP
-0.068

Data request, read-out shrunken log2 fold change, for RRIRQRPPRLPRPRPRPTQPPRP
0.356

Data request, read-out shrunken log2 fold change, for RRIRQRPPRLPRPRPRPELEPRP
-0.0293

###

Attribute: shrunken log2 fold change
- System: Escherichia coli TOP10
- assay.notes: shrunken log2 fold change of peptide-encoding DNA abundance (4.5 h post-induction vs induction); higher = less antimicrobial activity (less host growth inhibition)
- particulars: time post-induction: 4.5 h; library: site-saturation at positions 5, 18, 19, 20
The response must contain the number and no unit.

[[record]]
sequence_text = "RRIRGRPPRLPRPRPRPSGCPRP"
property_name = "shrunken log2 fold change"
endpoint_value = 0.477


Shift focus to the following entry.
GET /values?readout=shrunken log2 fold change&system=Escherichia coli TOP10&item= RRIRCRPPRLPRPRPRPQGWPRP
-0.0139

###

- Test system: Escherichia coli TOP10
- assay.notes: shrunken log2 fold change of peptide-encoding DNA abundance (4.5 h post-induction vs induction); higher = less antimicrobial activity (less host growth inhibition)
- particulars: time post-induction: 4.5 h; library: site-saturation at positions 5, 18, 19, 20
# label = bin(measured shrunken log2 fold change), where bins are low interval = under -0.2, middle interval = from -0.2 up to 0.02, high interval = 0.02 and over

A selection of reference data follows.
[[record]]
sequence_text = "RRIRWRPPRLPRPRPRPQTTPRP"
label_value = "high interval"

[[record]]
sequence_text = "RRIRCRPPRLPRPRPRPCRAPRP"
label_value = "middle interval"

[[record]]
sequence_text = "RRIRERPPRLPRPRPRPTWSPRP"
label_value = "low interval"

[[record]]
sequence_text = "RRIRARPPRLPRPRPRPMLWPRP"
label_value = "high interval"

[[record]]
sequence_text = "RRIRNRPPRLPRPRPRPMQHPRP"
label_value = "middle interval"


Band assignment needed for RRIRSRPPRLPRPRPRPSQLPRP please.
low interval

Band assignment needed for RRIRKRPPRLPRPRPRPWKWPRP please.
middle interval

Band assignment needed for RRIRDRPPRLPRPRPRPLRYPRP please.
middle interval

Band assignment needed for RRIRHRPPRLPRPRPRPYLIPRP please.
low interval

Band assignment needed for RRIRNRPPRLPRPRPRPDTGPRP please.
middle interval

Band assignment needed for RRIRCRPPRLPRPRPRPHDKPRP please.
low interval

Band assignment needed for RRIRDRPPRLPRPRPRPDTKPRP please.
middle interval

Band assignment needed for RRIRYRPPRLPRPRPRPMRDPRP please.
middle interval

###

Attribute: shrunken log2 fold change
- Tested on: Escherichia coli TOP10
- assay.notes: shrunken log2 fold change of peptide-encoding DNA abundance (4.5 h post-induction vs induction); higher = less antimicrobial activity (less host growth inhibition)
- particulars: time post-induction: 4.5 h; library: site-saturation at positions 5, 18, 19, 20
The response must contain the number and no unit.

GET /values?readout=shrunken log2 fold change&system=Escherichia coli TOP10&item= RRIRPRPPRLPRPRPRPNQRPRP
0.0736

GET /values?readout=shrunken log2 fold change&system=Escherichia coli TOP10&item= RRIRVRPPRLPRPRPRPEYRPRP
-0.115

GET /values?readout=shrunken log2 fold change&system=Escherichia coli TOP10&item= RRIRWRPPRLPRPRPRPIVIPRP
-0.353

GET /values?readout=shrunken log2 fold change&system=Escherichia coli TOP10&item= RRIRIRPPRLPRPRPRPKRQPRP
0.174

GET /values?readout=shrunken log2 fold change&system=Escherichia coli TOP10&item= RRIRTRPPRLPRPRPRPYLGPRP
-0.00172

GET /values?readout=shrunken log2 fold change&system=Escherichia coli TOP10&item= RRIRVRPPRLPRPRPRPVNLPRP
-0.322

GET /values?readout=shrunken log2 fold change&system=Escherichia coli TOP10&item= RRIRRRPPRLPRPRPRPIFWPRP
0.821

GET /values?readout=shrunken log2 fold change&system=Escherichia coli TOP10&item= RRIRFRPPRLPRPRPRPWMKPRP
-0.0336

GET /values?readout=shrunken log2 fold change&system=Escherichia coli TOP10&item= RRIRYRPPRLPRPRPRPRKIPRP
-0.483

GET /values?readout=shrunken log2 fold change&system=Escherichia coli TOP10&item= RRIRYRPPRLPRPRPRPMLPPRP
-0.0473

GET /values?readout=shrunken log2 fold change&system=Escherichia coli TOP10&item= RRIRARPPRLPRPRPRPSATPRP
1.26

GET /values?readout=shrunken log2 fold change&system=Escherichia coli TOP10&item= RRIRRRPPRLPRPRPRPWWNPRP
-0.188

GET /values?readout=shrunken log2 fold change&system=Escherichia coli TOP10&item= RRIRERPPRLPRPRPRPDKFPRP
-0.466

GET /values?readout=shrunken log2 fold change&system=Escherichia coli TOP10&item= RRIRKRPPRLPRPRPRPRMQPRP
0.622

GET /values?readout=shrunken log2 fold change&system=Escherichia coli TOP10&item= RRIRYRPPRLPRPRPRPNCFPRP
-0.43

GET /values?readout=shrunken log2 fold change&system=Escherichia coli TOP10&item= RRIRDRPPRLPRPRPRPQKRPRP
-0.00561

GET /values?readout=shrunken log2 fold change&system=Escherichia coli TOP10&item= RRIRWRPPRLPRPRPRPTAEPRP
1.76

GET /values?readout=shrunken log2 fold change&system=Escherichia coli TOP10&item= RRIRHRPPRLPRPRPRPCQFPRP
-0.0209

###

- Test system: Escherichia coli TOP10;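 note: peptides expressed intracellularly from a pBAD plasmid library in pooled LB shake-flask culture, induced with 0.3% L-arabinose, DNA abundance read by NGS, three biological replicates, DESeq2 with apeglm shrinkage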
- assay.notes: shrunken log2 fold change of peptide-encoding DNA abundance (4.5 h post-induction vs induction); higher = less antimicrobial activity (less host growth inhibition)
- particulars: time post-induction: 4.5 h; library: site-saturation at positions 5, 18, 19, 20
# label = bin(measured shrunken log2 fold change), where bins are Low: < 0.04; Mid: ≥ 0.04 and < 0.2; High: ≥ 0.2

A selection of reference data follows.
[[record]]
sequence_text = "RRIRGRPPRLPRPRPRPLGIPRP"
label_value = "Mid"

[[record]]
sequence_text = "RRIRGRPPRLPRPRPRPGMTPRP"
label_value = "High"


Band assignment needed for RRIRERPPRLPRPRPRPFPRPRP please.
Mid

Band assignment needed for RRIRGRPPRLPRPRPRPNVEPRP please.
Mid

Band assignment needed for RRIRYRPPRLPRPRPRPMMCPRP please.
Mid

Band assignment needed for RRIRRRPPRLPRPRPRPELKPRP please.
High

Band assignment needed for RRIRLRPPRLPRPRPRPGKCPRP please.
Low

Band assignment needed for RRIRLRPPRLPRPRPRPTGMPRP please.
Mid

Band assignment needed for RRIRARPPRLPRPRPRPYWCPRP please.
Low

Band assignment needed for RRIRTRPPRLPRPRPRPFANPRP please.
Low

Band assignment needed for RRIRSRPPRLPRPRPRPFDIPRP please.
Low

Band assignment needed for RRIRSRPPRLPRPRPRPFAHPRP please.
Mid

Band assignment needed for RRIRKRPPRLPRPRPRPLVGPRP please.
Mid

Band assignment needed for RRIRWRPPRLPRPRPRPHRKPRP please.
Mid

Band assignment needed for RRIRMRPPRLPRPRPRPWWSPRP please.
High

Band assignment needed for RRIRRRPPRLPRPRPRPSYYPRP please.
Low
